From: patent US20240299385A1

Subject of test: human GPR17 receptor (Homo sapiens, UniProt Q13304)
Sequence (Q13304 whole entry): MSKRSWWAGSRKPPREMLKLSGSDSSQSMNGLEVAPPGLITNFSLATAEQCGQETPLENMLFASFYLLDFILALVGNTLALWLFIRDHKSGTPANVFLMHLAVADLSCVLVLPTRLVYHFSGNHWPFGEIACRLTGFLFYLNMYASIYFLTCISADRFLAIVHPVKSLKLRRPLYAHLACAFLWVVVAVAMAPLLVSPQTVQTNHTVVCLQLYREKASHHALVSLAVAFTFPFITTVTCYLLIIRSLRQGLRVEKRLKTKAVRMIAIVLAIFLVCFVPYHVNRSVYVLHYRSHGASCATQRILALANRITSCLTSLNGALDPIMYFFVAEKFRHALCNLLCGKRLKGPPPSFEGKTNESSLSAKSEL
Procedure summary: Calcium mobilization functional assay (Fluo-8, FLIPR TETRA) in HEK-293 hGPR17 (Gα-q assay)
Condition label: antagonism of MDL29,951 (~EC80) induced Ca2+ signal; cell line (HEK-293 hGPR17 or HEK-293 Suchi5 hGPR17) not given
pIC50: −log10 of the molar value.
Property: pIC50

Some compounds with recorded pIC50:
| Compound | Result value |
| --- | --- |
| COc1ccc(NS(=O)(=O)c2c[nH]c(-c3ccccc3)c2)c(F)c1 [Cpd 032] | 4.30 to 5.30 |
| N#Cc1cnc(-c2cc(S(=O)(=O)Nc3cc(F)c(C(F)(F)F)cc3F)c[nH]2)s1 [Cpd 607] | 4.30 to 5.30 |
| N#Cc1cccc(-c2cc(S(=O)(=O)Nc3cc(F)c(C(F)(F)F)cc3F)c[nH]2)c1 [Cpd 318] | > 6.30 |
| O=S(=O)(Nc1cc(F)c(C(F)(F)F)cc1F)c1c[nH]c(-c2nccs2)c1 [Cpd 339] | > 6.30 |
| Cc1c(S(=O)(=O)Nc2ccc(C#N)cc2F)c[nH]c1-c1ccccc1 [Cpd 033] | > 6.30 |
| O=S(=O)(Nc1cc(F)c(C(F)(F)F)cc1F)c1c[nH]c(-c2ccccc2OC(F)(F)F)c1 [Cpd 589] | 5.30 to 6.30 |
| O=S(=O)(Nc1cc(F)c(C(F)(F)F)cc1F)c1c[nH]c(-c2ccccc2F)c1 [Cpd 073] | > 6.30 |
| N#Cc1ccc(NS(=O)(=O)c2c[nH]c(-c3ccc(Cl)cc3)c2)c(F)c1 [Cpd 011] | 5.30 to 6.30 |

Query: Please look up its pIC50: Cc1cccc(F)c1-c1cc(S(=O)(=O)Nc2ccc(C#N)cc2F)c[nH]1 [Cpd 082]
Reply: > 6.30

Query: I would be grateful if you could share the reported pIC50 for N#Cc1ccc(NS(=O)(=O)c2c[nH]cc2-c2cccs2)c(F)c1 [Cpd 398] .
Reply: 5.30 to 6.30

Query: Which pIC50 value belongs to O=S(=O)(Nc1cc(F)c(C(F)(F)F)cc1F)c1c[nH]c(C2CCC2)c1 [Cpd 430] ?
Reply: > 6.30

* * *

Subject of test: human GPR17 receptor (Homo sapiens, UniProt Q13304)
Procedure summary: Calcium mobilization functional assay (Fluo-8, FLIPR TETRA) in HEK-293 hGPR17 (Gα-q assay)
Condition label: antagonism of MDL29,951 (~EC80) induced Ca2+ signal; cell line (HEK-293 hGPR17 or HEK-293 Suchi5 hGPR17) not given
Property: IC50

Use the examples below as a reference point.
| Compound | Subject of test | IC50 |
| --- | --- | --- |
| O=S(=O)(Nc1ncc(Cl)cc1F)c1c[nH]c(-c2ccccn2)c1 [Cpd 164] | human GPR17 receptor (Homo sapiens, UniProt Q13304) | 0.5 to 5 µM |
| Cc1cc(NS(=O)(=O)c2c[nH]c(-c3ccc(F)cc3F)c2)c(F)cc1C#N [Cpd 514] | human GPR17 receptor (Homo sapiens, UniProt Q13304) | 0.5 to 5 µM |
| CCc1cc(NS(=O)(=O)c2c[nH]c(-c3ccccc3)c2)c(F)cc1C#N [Cpd 529] | human GPR17 receptor (Homo sapiens, UniProt Q13304) | < 0.5 µM |
| N#Cc1ccc(NS(=O)(=O)c2c[nH]c(-c3sccc3F)c2)c(F)c1 [Cpd 602] | human GPR17 receptor (Homo sapiens, UniProt Q13304) | < 0.5 µM |
| N#Cc1ccc(F)c(-c2cc(S(=O)(=O)Nc3cc(F)c(OC(F)F)cc3F)c[nH]2)c1 [Cpd 650] | human GPR17 receptor (Homo sapiens, UniProt Q13304) | < 0.5 µM |

Moving on to the next compound.
Query: Can you look up the measured IC50 of O=S(=O)(Nc1cc(F)c(Cl)cc1F)c1c[nH]c(-c2ccccc2)c1 [Cpd 145] for me?
Reply: 0.5 to 5 µM

* * *

pIC50 overview
Subject of test: human GPR17 receptor (Homo sapiens, UniProt Q13304)
Procedure summary: Calcium mobilization functional assay (Fluo-8, FLIPR TETRA) in HEK-293 hGPR17 (Gα-q assay)
Condition label: antagonism of MDL29,951 (~EC80) induced Ca2+ signal; cell line (HEK-293 hGPR17 or HEK-293 Suchi5 hGPR17) not given
pIC50: −log10 of the molar value.

Query: Which pIC50 value is on record for O=S(=O)(Nc1cc(F)c(C(F)(F)F)cc1F)c1c[nH]c(-c2ncccc2CF)c1 [Cpd 573] ?
Reply: 5.30 to 6.30

Query: Which pIC50 value is on record for O=S(=O)(Nc1cc(F)c(OC(F)F)cc1F)c1c[nH]cc1Cc1cccc(OC(F)F)c1 [Cpd 483] ?
Reply: 5.30 to 6.30

Query: Need pIC50 of O=S(=O)(Nc1cc(F)c(C(F)(F)F)cc1F)c1c[nH]c(C2CCOC2)c1 (stereo not shown) [Cpd 424] , thanks.
Reply: 5.30 to 6.30

Query: What value of measured pIC50 is listed for O=S(=O)(Nc1cc(F)c(C(F)(F)F)cc1F)c1c[nH]c(-c2ccccc2C(F)(F)F)c1 [Cpd 361] ?
Reply: 5.30 to 6.30

Query: Could you share which pIC50 value was measured for N#Cc1cccc(-c2cc(S(=O)(=O)Nc3ccc(C#N)cc3F)c[nH]2)c1 [Cpd 025] ?
Reply: > 6.30

* * *

Subject of test: human GPR17 receptor (Homo sapiens)
Procedure summary: Calcium mobilization functional assay (Fluo-8, FLIPR TETRA) in HEK-293 hGPR17 (Gα-q assay)
Condition label: antagonism of MDL29,951 (~EC80) induced Ca2+ signal; cell line (HEK-293 hGPR17 or HEK-293 Suchi5 hGPR17) not given
pIC50: −log10 of the molar value.
Below, each entry is listed alongside its reported pIC50.

Example compounds with recorded pIC50:
| Smiles record | Subject of test | Property | Result value |
| --- | --- | --- | --- |
| N#Cc1ccc(NS(=O)(=O)c2c[nH]c(-c3cccc(Br)n3)c2)c(F)c1 | human GPR17 receptor (Homo sapiens) | pIC50 | > 6.30 |
| N#Cc1ccc(NS(=O)(=O)c2c[nH]c(-c3cccc(F)n3)c2)c(F)c1 | human GPR17 receptor (Homo sapiens) | pIC50 | > 6.30 |
| N#Cc1cnc(NS(=O)(=O)c2c[nH]c(-c3ccccc3)c2)s1 | human GPR17 receptor (Homo sapiens) | pIC50 | 5.30 to 6.30 |

Query: Query (compound): O=S(=O)(Nc1cc(F)c(C(F)(F)F)cc1F)c1c[nH]cc1Cc1cccs1 ; field requested: pIC50
Reply: > 6.30

Query: Can you share its pIC50? I mean this compound: N#Cc1cc(F)c(NS(=O)(=O)c2c[nH]c(-c3ccccc3)c2)c(F)c1
Reply: 5.30 to 6.30

Query: State the recorded pIC50 for this entry: O=S(=O)(Nc1cc(F)c(OC(F)F)cc1F)c1c[nH]c(-c2cc(Cl)cs2)c1
Reply: > 6.30

Query: # get_value(readout='pIC50', item= O=S(=O)(Nc1cc(F)c(OC(F)F)cc1F)c1c[nH]c(-c2cccs2)c1 )
Reply: > 6.30

Query: GET /values?readout=pIC50&item= Cc1cc(-c2cc(S(=O)(=O)Nc3cc(F)c(C(F)(F)F)cc3F)c[nH]2)cs1
Reply: 5.30 to 6.30

Query: Look up pIC50 for this compound: Cn1cc2cccc(-c3cc(S(=O)(=O)Nc4cc(F)c(C(F)(F)F)cc4F)c[nH]3)c2n1
Reply: 5.30 to 6.30

Query: Given the entry O=S(=O)(Nc1cc(F)c(C(F)(F)F)cc1F)c1c[nH]c(-c2c(F)cccc2F)c1 , report its measured pIC50.
Reply: > 6.30

* * *

Subject of test: UniProtKB Q13304
Procedure summary: Calcium mobilization functional assay (Fluo-8, FLIPR TETRA) in HEK-293 hGPR17 (Gα-q assay)
Condition label: antagonism of MDL29,951 (~EC80) induced Ca2+ signal; cell line (HEK-293 hGPR17 or HEK-293 Suchi5 hGPR17) not given
pIC50: −log10 of the molar value.
pIC50 for assorted compounds

| Compound | Subject of test | pIC50 |
| --- | --- | --- |
| N#Cc1ccc(NS(=O)(=O)c2c[nH]c(-c3ccoc3)c2)c(F)c1 [Cpd 441] | UniProtKB Q13304 | > 6.30 |

Query: Which pIC50 is reported for this compound? N#Cc1ccc(NS(=O)(=O)c2c[nH]c(-c3ccccc3Cl)c2)c(F)c1 [Cpd 016]
Reply: > 6.30

Query: What does the data say about its pIC50? Entry: N#Cc1cc(F)c(NS(=O)(=O)c2c[nH]c(-c3coc4ccccc34)c2)cc1F [Cpd 651]
Reply: > 6.30

Query: # input compound: Cc1c(F)cccc1-c1cc(S(=O)(=O)Nc2ccc(C#N)cc2F)c[nH]1 [Cpd 249] ; wanted: its pIC50
Reply: 5.30 to 6.30

Query: If you can, please state the reported pIC50 value of O=S(=O)(Nc1ccc(OC(F)(F)F)cc1F)c1c[nH]c(-c2ccccc2)c1 [Cpd 143] .
Reply: 5.30 to 6.30

Query: I have this compound here, Cc1cccc(-c2cc(S(=O)(=O)Nc3ccc(C#N)cc3F)c[nH]2)c1 [Cpd 005] , and I need its recorded pIC50.
Reply: > 6.30

Query: What does the record list as pIC50 for N#Cc1ccc(NS(=O)(=O)c2c[nH]c(-c3ccccc3C#N)c2)c(F)c1 [Cpd 106] ?
Reply: 5.30 to 6.30

Query: Any idea what its pIC50 is? The compound is O=S(=O)(Nc1ccc(C(F)(F)F)cc1F)c1c[nH]c(-c2ccccc2)c1 [Cpd 313]
Reply: 5.30 to 6.30

Query: Which pIC50 is listed for Cc1ccc(-c2cc(S(=O)(=O)Nc3ccc(C#N)cc3F)c[nH]2)cc1 [Cpd 008] ?
Reply: 5.30 to 6.30

Query: Entry under review: Cc1nc(Cl)ccc1NS(=O)(=O)c1c[nH]c(-c2ccccc2)c1 [Cpd 126] . Reported pIC50?
Reply: 5.30 to 6.30
